Test system: KB-3-1
Test: Cytotoxic Profiling of Annotated Libraries Using Quantitative High-Throughput Screening (AID 1296008); note: nearly all actives have a fitted effect of over 60% in size
Conditions: Five cell lines viability, CellTiter-Glo ATP luminescence, 48-72 h
Results filed as inconclusive are left out. The source made the active and inactive calls. Calls come from the whole dose curve; as a rule, active = well fitted inhibition curve with a large enough effect; inconclusive = small, poorly fitted or top-dose-only effect; inactive = flat fitted curve, though single readings scatter. Where a SMILES comes first, the peptide text is derived from it. [ ]: non-standard residue; d: D form.
readout.type: Potency

COc1ccc(C(O[C@@H]2O[C@H](CO)[C@@H](O)[C@H](O)[C@H]2O)C(CO)Oc2ccc(/C=C/CO)cc2OC)cc1O (stereo partly drawn) : inactive
C[C@@H]1O[C@@H](OC[C@H]2O[C@@H](OCCc3ccccc3)[C@H](O)[C@@H](O)[C@@H]2O)[C@H](O)[C@H](O)[C@H]1O : inactive
C[C@]12CC[C@@H]3c4ccc(O[C@@H]5O[C@H](C(=O)O)[C@@H](O)[C@H](O)[C@H]5O)cc4CC[C@H]3[C@@H]1CCC2=O : inactive
COC(=O)CC[C@@H](C)[C@H]1CC[C@H]2[C@@H]3CC(=O)[C@H]4C[C@H](OC(C)=O)CC[C@]4(C)[C@H]3CC[C@]12C : inactive

List the reported Potency of each compound below.
1. C[C@@H]1O[C@@H](O[C@H]2[C@H](O[C@H]3CC[C@@]4(C)C(CC[C@]5(C)C4CC=C4[C@@H]6CC(C)(C)CC[C@]6(C(=O)O)CC[C@]45C)[C@]3(C)CO)OC[C@H](O)[C@@H]2O)[C@H](O)[C@H](O[C@@H]2OC[C@@H](O)[C@H](O)[C@H]2O)[C@H]1O (stereo partly drawn)
2. O=C(O[C@@H]1O[C@H](CO)[C@@H](O)[C@H](O)[C@H]1O)c1c(O)cc(O)cc1/C=C/c1ccccc1
3. C=CCc1ccc(O[C@@H]2O[C@H](CO)[C@@H](O)[C@H](O)[C@H]2O)c(OC)c1
4. CC(=O)N[C@H](Cc1ccc(O)cc1)C(=O)N[C@H](CCCN=C(N)N)C(=O)N[C@H](Cc1ccccc1)C(N)=O (Ac-[dY]-[dR]-[dF]-NH2)
5. O=c1c2ccccc2nc2n1CCC2O (stereo not drawn)
6. c1ccc(Nc2nc3c(s2)CCCc2[nH]ncc2-3)nc1

output:
inactive
inactive
inactive
inactive
inactive
inactive
